# assay_system: Ephrin type-A receptor 3 (Homo sapiens);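 further: values are mean inhibition of EPHA3, from the GSK PKIS dataset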
# Sequence (whole entry): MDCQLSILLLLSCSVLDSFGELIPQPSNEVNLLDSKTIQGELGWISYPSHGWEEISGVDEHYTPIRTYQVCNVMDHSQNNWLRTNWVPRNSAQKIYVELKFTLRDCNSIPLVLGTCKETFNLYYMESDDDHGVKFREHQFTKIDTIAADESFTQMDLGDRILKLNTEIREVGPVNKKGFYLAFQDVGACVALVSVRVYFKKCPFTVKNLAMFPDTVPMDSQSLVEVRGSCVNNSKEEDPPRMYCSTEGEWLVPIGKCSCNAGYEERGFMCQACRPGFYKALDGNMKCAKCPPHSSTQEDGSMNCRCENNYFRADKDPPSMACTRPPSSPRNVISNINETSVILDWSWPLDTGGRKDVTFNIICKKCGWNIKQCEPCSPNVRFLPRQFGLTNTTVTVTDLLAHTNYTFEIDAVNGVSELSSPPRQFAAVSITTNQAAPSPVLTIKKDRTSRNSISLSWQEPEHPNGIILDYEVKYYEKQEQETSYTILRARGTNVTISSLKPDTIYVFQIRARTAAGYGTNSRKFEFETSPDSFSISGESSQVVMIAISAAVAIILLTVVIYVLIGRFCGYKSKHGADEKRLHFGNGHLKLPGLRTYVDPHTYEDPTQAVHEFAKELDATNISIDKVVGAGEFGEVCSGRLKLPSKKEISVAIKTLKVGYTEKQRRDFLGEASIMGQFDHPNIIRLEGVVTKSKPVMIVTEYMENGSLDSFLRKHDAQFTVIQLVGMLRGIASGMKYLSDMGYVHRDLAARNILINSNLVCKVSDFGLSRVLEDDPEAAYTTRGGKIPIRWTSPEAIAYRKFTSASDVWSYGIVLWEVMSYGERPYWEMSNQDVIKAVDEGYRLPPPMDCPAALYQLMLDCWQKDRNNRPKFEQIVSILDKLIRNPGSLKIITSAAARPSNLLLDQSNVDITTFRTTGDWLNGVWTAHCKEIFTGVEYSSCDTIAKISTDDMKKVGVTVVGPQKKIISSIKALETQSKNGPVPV
# test_context: at 0.1 µM
readout_name: inhibition (%)
Please respond with the number in % and leave the unit unwritten.

Some entries whose results are on file:
Cc1ccc2c(-c3ccnc(Nc4ccc5c(c4)OCCO5)n3)c(-c3ccc(C(F)(F)F)cc3)nn2n1 :: 1.81
NS(=O)(=O)c1cccc(Nc2cc(-c3ccc(F)cc3)n[nH]2)c1 :: 4.22
CC(C)c1ccc(Nc2nccc(-c3cnn4ncccc34)n2)cc1 :: 1.96

### Prompt For the compound shown here, N#Cc1c(NC(=O)c2ccccc2F)sc2c1CCCC2 , give the reported inhibition.
### Response -3.2

### Prompt Consider the compound COC(=O)c1ccc2c(c1)C(=Cc1cc(Br)c(O)c(Br)c1)C(=O)N2 and give its measured inhibition.
### Response 0.28

### Prompt What inhibition value was documented for this compound, CCCN1CCCC(c2ccc(Nc3nc(Nc4cc(F)ccc4C(N)=O)c4cc[nH]c4n3)c(OC)c2)C1 (stereo not given) ?
### Response 3.86

### Prompt # inhibition lookup, item NS(=O)(=O)c1ccc(Nc2cc(-c3cccc(O)c3)n[nH]2)cc1
### Response 6.18

### Prompt Request the reported inhibition associated with COc1cc2ncn(-c3cc(OCc4ccccc4S(C)(=O)=O)c(C#N)s3)c2cc1OC
### Response 8.09

### Prompt Which inhibition is reported for this compound? COC(=O)c1cncc(/C=C/c2c(C)cc(O)cc2C)c1
### Response 7.42

### Prompt Look up inhibition for this compound: Cc1ccc(O)cc1Nc1ccnc2ccc(S(C)(=O)=O)cc12
### Response 92.2

###

Below, each of the compounds is paired with its reported inhibition value.
# assay_system: Mitogen-activated protein kinase 9 (Homo sapiens) (UniProt P45984);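 further: reported figure is the mean inhibition of JNK2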
# Sequence (P45984 whole entry, looked up): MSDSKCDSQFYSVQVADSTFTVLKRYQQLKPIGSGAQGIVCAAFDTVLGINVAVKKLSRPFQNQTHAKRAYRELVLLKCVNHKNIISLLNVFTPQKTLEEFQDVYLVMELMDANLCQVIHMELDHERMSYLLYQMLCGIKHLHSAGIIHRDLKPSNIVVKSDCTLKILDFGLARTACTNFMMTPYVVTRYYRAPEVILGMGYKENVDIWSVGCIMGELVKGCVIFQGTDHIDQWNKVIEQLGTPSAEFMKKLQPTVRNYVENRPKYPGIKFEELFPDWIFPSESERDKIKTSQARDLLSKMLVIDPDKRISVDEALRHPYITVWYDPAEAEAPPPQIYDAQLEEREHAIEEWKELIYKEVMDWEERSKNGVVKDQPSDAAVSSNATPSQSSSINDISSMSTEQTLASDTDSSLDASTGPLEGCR
# test_context: at 1 µM
Write the number in % without appending the unit.

The following compounds have reported results that may help.
Cc1cc(O)cc(C)c1/C=C/c1cncc(C(=O)N(C)C)c1 :: 2.38
Cc1ccc(NC(=O)CC2CC2)cc1-c1ccc(C(=O)NCC2CC2)cc1 :: 3.8
OCc1ccc(-c2nc(-c3ccccn3)c(-c3ccc4c(c3)OCO4)[nH]2)cc1 :: 5.14

### Prompt What does the record list as inhibition for COc1cc2ncnc(Nc3ccc(C)c(O)c3)c2cc1OC ?
### Response 5.02

### Prompt Fill in the blank: the reported inhibition of CN(c1ccc(NC(=O)Nc2ccc(OC(F)(F)F)cc2)cc1)c1ccnc(Nc2cccc(S(N)(=O)=O)c2)n1 is ____.
### Response 3.15

### Prompt // inhibition lookup, key: COc1cc(Nc2nccc(-c3cnn4ncccc34)n2)cc(OC)c1
### Response 48.1

### Prompt Requested read-out: inhibition. Entry: Nc1ccc(C#Cc2cncnc2Nc2ccc(OCc3cccc(F)c3)c(Cl)c2)cc1
### Response 1.2

### Prompt Returns the measured inhibition for the input compound. Input: Nc1nccc(C#Cc2cncnc2Nc2ccc(OCc3cccc(F)c3)c(Cl)c2)n1
### Response 4.23

### Prompt Fill blank: measured inhibition of the compound COc1cc2ncnc(Nc3ccc4c(cnn4Cc4ccccc4)c3)c2cc1OC is ____.
### Response 1.98

### Prompt Bench note: what inhibition did Cc1ccc(Nc2ccnc(Nc3cccc(C(N)=O)c3)n2)cc1O show?
### Response 14.6

###

# assay_system: G protein-coupled receptor kinase 6 (Homo sapiens);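 further: values are averaged percent inhibition of GRK6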
# test_context: at 1 µM
readout_name: inhibition (%)
Quick note: give the figure in %, leave out the unit.

NS(=O)(=O)c1ccc(N/N=C2\C(=O)Nc3ccc(Cl)cc32)cc1 :: 8.19
COc1cc2ncnc(Nc3ccc4c(cnn4Cc4ccccc4)c3)c2cc1OC :: 2.17
CN(C)c1cc2c(Nc3ccc4c(cnn4Cc4ccccc4)c3)ncnc2cn1 :: 3.36
CN(C)CCCn1c(-c2nonc2N)nc2cnccc21 :: 3.55
Nc1nccc(C#Cc2cncnc2Nc2ccc(OCc3cccc(F)c3)c(Cl)c2)n1 :: -4.58

### Prompt Which inhibition is reported for this compound? COc1ccc2ncnc(Nc3ccc(OCc4ccccc4)cc3)c2c1
### Response 5.27

### Prompt I'd like to know its inhibition. The compound in question is O=C1Nc2ccc(-c3cccnc3)cc2C1=Cc1cc(Br)c(O)c(Br)c1
### Response 46.1

### Prompt GET /values?readout=inhibition&item= [O-][S+]1CCN(Cc2ccc(-c3ccc4ncnc(Nc5ccc(OCc6ccccc6)c(Cl)c5)c4c3)o2)CC1
### Response 1.12

###

# assay_system: Tyrosine-protein kinase Fyn (Homo sapiens) (UniProt P06241)
# Sequence (P06241 2-537 limits assumed): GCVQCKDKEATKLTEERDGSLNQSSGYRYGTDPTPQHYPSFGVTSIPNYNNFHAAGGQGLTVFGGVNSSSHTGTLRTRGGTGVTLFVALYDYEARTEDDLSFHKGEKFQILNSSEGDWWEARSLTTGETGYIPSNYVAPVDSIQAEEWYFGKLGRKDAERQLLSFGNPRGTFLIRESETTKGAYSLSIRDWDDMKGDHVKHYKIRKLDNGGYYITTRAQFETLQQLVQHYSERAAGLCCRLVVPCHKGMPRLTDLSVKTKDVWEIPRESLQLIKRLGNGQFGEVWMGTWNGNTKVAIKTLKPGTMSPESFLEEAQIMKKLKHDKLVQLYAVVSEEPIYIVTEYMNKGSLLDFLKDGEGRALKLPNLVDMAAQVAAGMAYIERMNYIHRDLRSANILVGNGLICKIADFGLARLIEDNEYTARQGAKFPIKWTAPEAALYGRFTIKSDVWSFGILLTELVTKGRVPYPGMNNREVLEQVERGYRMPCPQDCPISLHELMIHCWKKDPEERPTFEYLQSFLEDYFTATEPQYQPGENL
# test_context: at 1 µM
# Description: GSK_PKIS: FYN mean inhibition at 1 uM [Nanosyn]
Note to self: values exactly at 10% are T. So inhibition at or above 10% is T, below is F.

O=C1Nc2ccc(-c3cccnc3)cc2C1=Cc1cc(Br)c(O)c(Br)c1 :: T
COc1cccc(-n2ncc3c(N/N=C/c4ccc(S(C)(=O)=O)cc4)ncnc32)c1 :: T
CC(C)c1ccc(Nc2nccc(-c3cnn4ncccc34)n2)cc1 :: F
COc1cc2ncnc(Nc3ccc4c(cnn4Cc4ccccc4)c3)c2cc1OC :: T
CS(=O)(=O)Nc1cccc(-c2ccc3c(NC(=O)C4CC4)n[nH]c3c2)c1 :: F
COc1cc2ncnc(Nc3ccc(C)c(O)c3)c2cc1OC :: T

### Prompt Does the molecule ON=C1CCc2cc(-c3nc(C4CCNCC4)[nH]c3-c3ccncc3)ccc21 have recorded inhibition that is 10% or more?
### Response F

### Prompt Given the entry NS(=O)(=O)c1ccc(N/N=C2\C(=O)Nc3ccc(Cl)cc32)cc1 , answer whether its inhibition meets or surpasses 10%.
### Response F

### Prompt Evaluate C[C@@H](Oc1cc(-n2cnc3ccc(OC[C@@H](O)CO)cc32)sc1C(N)=O)c1ccccc1Cl : inhibition at minimum 10%?
### Response F

### Prompt Quick check, inhibition >= 10%? COc1cc(Nc2nccc(-c3cnn4ncccc34)n2)cc(OC)c1
### Response T

### Prompt Evaluate O=C(Nc1ccc(Oc2ccc3[nH]c(NC(=O)c4ccco4)nc3c2)cc1)Nc1cc(C(F)(F)F)ccc1F : inhibition at minimum 10%?
### Response T

### Prompt Threshold query (inhibition >= 10%) on CC(C)c1ccc2c(c1)NC(=O)/C2=N/Nc1ccc(S(N)(=O)=O)cc1
### Response F

### Prompt Record Oc1cccc(-c2nc(-c3ccccc3)[nH]c2-c2ccncc2)c1 ; criterion: inhibition no lower than 10%. Met?
### Response T

###

# assay_system: Inhibitor of nuclear factor kappa-B kinase subunit alpha (Homo sapiens) (UniProt O15111);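 further: mean percent inhibition from GSK PKIS profiling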
# Sequence (O15111 whole entry): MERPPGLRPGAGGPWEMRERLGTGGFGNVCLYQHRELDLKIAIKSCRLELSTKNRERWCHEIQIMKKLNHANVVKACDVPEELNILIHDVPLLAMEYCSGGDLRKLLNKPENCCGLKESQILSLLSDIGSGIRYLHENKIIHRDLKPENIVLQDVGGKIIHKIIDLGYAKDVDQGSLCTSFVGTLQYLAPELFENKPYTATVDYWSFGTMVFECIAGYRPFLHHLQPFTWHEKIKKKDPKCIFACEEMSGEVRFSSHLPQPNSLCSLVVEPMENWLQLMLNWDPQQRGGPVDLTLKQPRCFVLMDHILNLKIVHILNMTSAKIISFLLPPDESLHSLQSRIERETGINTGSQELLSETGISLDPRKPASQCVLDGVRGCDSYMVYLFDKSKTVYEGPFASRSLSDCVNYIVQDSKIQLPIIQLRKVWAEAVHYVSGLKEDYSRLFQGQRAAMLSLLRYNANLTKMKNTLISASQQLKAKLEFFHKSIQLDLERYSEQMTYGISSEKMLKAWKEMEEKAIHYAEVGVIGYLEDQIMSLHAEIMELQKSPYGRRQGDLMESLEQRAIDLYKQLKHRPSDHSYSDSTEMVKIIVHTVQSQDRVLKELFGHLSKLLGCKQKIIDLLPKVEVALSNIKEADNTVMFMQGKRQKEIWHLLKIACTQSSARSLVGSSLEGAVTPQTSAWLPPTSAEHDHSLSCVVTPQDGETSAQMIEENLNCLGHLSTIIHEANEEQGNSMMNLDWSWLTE
# test_context: at 0.1 µM
Each entry below carries its reported inhibition.
Answer as a quantity: numeral, then unit.

Cc1cc(Cl)cc2c1NC(=O)C2=NNc1ccc(S(N)(=O)=O)cc1 :: 1.51%
N#Cc1c(NC(=O)c2ccccc2F)sc2c1CCCC2 :: 2.43%
CN(C)C(=O)O[C@H]1CN[C@H](C#Cc2cc3ncnc(Nc4ccc(OCc5cccc(F)c5)c(Cl)c4)c3s2)C1 :: 1.66%

### Prompt Quick check: inhibition of COc1cccc(-n2nc(C)c3c(N/N=C(\C)c4ccncc4)ncnc32)c1 ?
### Response 1.96%

Every entry's value here was drawn from ChEMBL document CHEMBL1961873.
